Target: GPR23 (Homo sapiens, UniProt Q99677)
Sequence (Q99677 whole entry): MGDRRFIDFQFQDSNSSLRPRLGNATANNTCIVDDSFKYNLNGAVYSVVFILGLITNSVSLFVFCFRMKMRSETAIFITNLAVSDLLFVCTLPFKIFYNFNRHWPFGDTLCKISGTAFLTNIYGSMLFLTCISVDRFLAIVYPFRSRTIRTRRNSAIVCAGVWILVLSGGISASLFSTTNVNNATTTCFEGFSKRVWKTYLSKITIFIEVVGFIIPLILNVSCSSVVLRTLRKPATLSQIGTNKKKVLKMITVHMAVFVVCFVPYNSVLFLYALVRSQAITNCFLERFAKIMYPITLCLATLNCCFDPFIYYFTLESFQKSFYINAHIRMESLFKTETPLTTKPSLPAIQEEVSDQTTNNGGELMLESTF
Parameter Measured: pKd
For clarity, pKd is expressed as the negative log10 of concentration in mol/L.

Lab note: need pKd for Nc1nc2nc[nH]c2c(=O)[nH]1 [GUA, guanine] on GPR23 (Homo sapiens, UniProt Q99677), anyone have it?
7.53
